- SYSTEM NAME: SARS-CoV-2 spike on pseudovirus (SARS-CoV-2, UniProt P0DTC2 14-1273)
- ASSAY PROTOCOL: cell-based or functional assay
MEASURED ATTRIBUTE: IC50, SARS-CoV-2 spike pseudovirus neutralization, repeated assay (FIGS. 9A-9F) (µM)

{"columns": ["BINDER", "OBSERVED RESULT"],
 "data": [
  ["7A5 VHH-hFc (Fc fusion, also called NCI-CoV-7A5 VHH-hFc fusion protein) AVQLVESGGGLVQPGGSLRLSCAASGFTFSSYYMSWVRQAPGKGLEWVSTINSRGSSTYYADSVKGRFTISRDNAKNTLYLQMSSLKSEDTALYYCAIGRLYSVKGQGTQVTVSS", 3.43],
  ["1B5 VHH-hFc (Fc fusion, also called 1B5-hFc; NCI-CoV-1B5 VHH-hFc fusion protein) DVQLVESGGGSVQAGGSLRLSCTGSRYTYSTYCMGWFRQAPGKEEEAVAIINSGGGEPYYGDSVKGRFTISQDRAKNTVYLQMDGLQPDDTAIYYCVAADSHNSRCYLGRSYVNYWGQGTQVTVSS", 0.0076],
  ["7C4 VHH-hFc (Fc fusion, also called NCI-CoV-7C4 VHH-hFc fusion protein) EVQLVESGGGLVQPGGSLRLSCTASGFTFSSYDMSWVRQAPGKGLEWVSGINSGGNKIYYADSVKGRFTISRDNAKNTLYLQMSSLKSEDTALYYCAIGRLYSVKGQGTQVTVSS", 4.29],
  ["3E8 VHH-hFc (Fc fusion, also called NCI-CoV-3E8 VHH-hFc fusion protein) QVQLVESGGGLVQAGGSLRLSCATSGFTFSGGYMAWVRQVPGKGLEWVANSIYDGSTYYSDAVKGRFTVSQDNAENTVYLEMNSLEPEDTAMYYCAAGWNGGPWSRTNAYIYWGQGTQVTVSS", 1.17]
]}
